System: cholesterol absorption
Test: Inhibition of cholesterol absorption in rats fed 1% cholesterol:0.5% cholic acid diet
Format: in vivo, male Sprague-Dawley rats
Conditions: po, 336 h; rat; dose .03% of the diet, 2 weeks; read-out: SS (serum sterol), percentage of control values
Output schema: class label derived from response vs control in vivo at 0.03 %. Mapping: group A: < 40%; group B: ≥ 40% and < 60%; group C: ≥ 60%

Answered cases to consult:
CCCCOc1ccc(CN(Cc2ccccc2)C(=O)Nc2ccc(F)cc2F)cc1 : group B
Cc1ccc(CCN(Cc2cccc(Cl)c2)C(=O)Nc2ccc(C)cc2C)cc1 : group B
CC(C)(C)CCN(Cc1ccccc1)C(=O)Nc1ccc(F)cc1F : group C
CCCCN(Cc1ccccc1)C(=O)Nc1ccc(Cl)cc1C : group C
O=C(Nc1c(Cl)cc(Cl)cc1Cl)N(Cc1ccc(Cl)cc1)Cc1cccc2ccccc12 : group A
Cc1cc(Cl)ccc1NC(=O)N(Cc1ccc(Cl)cc1)Cc1cccc2ccccc12 : group A
CCCCc1ccc(CN(CCCCC(C)(C)C)C(=O)Nc2c(Cl)cc(Cl)cc2Cl)cc1 : group B
CCCCCCCN(Cc1ccc(CCCC)cc1)C(=O)Nc1c(Cl)cc(Cl)cc1Cl : group A

Consider the record given below.
Which category does the recorded response vs control in vivo at 0.03 % put CCCCCCCN(Cc1ccc(CCCC)cc1)C(=O)Nc1ccc(C(=O)OCC)cc1 in?
group C
